This collection of values is drawn from paper PMC12597941.

- measurement_protocol: Untargeted LC-HRMS metabolite profiling after oral PAC administration
- experimental_parameters: after oral PACs
measurement_label: Time points at which the metabolite was detected (h)
Write it as a number; the unit h goes unstated.

The molecule Oc1cc(O)c2c(c1)OC(c1ccc(O)c(O)c1)C(O)C2 (centres unmarked) [M11, Catechin] showed Time points at which the metabolite was detected equal to 6

The molecule COc1cc(C(O)C(O)/C(=C\C(=O)O)c2ccccc2)cc(O)c1O (centres unmarked) [M17] showed Time points at which the metabolite was detected equal to 6

The molecule Oc1cc(O)c(CC(O)Cc2ccc(O)c(O)c2)c(O)c1 (centres unmarked) [M14] showed Time points at which the metabolite was detected equal to 6

The molecule O=C(O)[C@H]1O[C@@H](Oc2c(-c3cc(O)c(O)c(O)c3)oc3cc(O)cc(O)c3c2=O)[C@H](O)[C@@H](O)[C@@H]1O [M18, Myricetin 3-O-glucuronide] showed Time points at which the metabolite was detected equal to 1

The molecule O=C1CCC(Cc2cc(O)cc(O)c2)O1 (centres unmarked) [M12] showed Time points at which the metabolite was detected equal to 6
